Test system: PfAP2-LT AP2 domain (GST-tagged)
Experiment: gcPBM binding intensity (ln(normalized median fluorescence intensity)); higher = stronger DNA binding
In all, about 25,000 sequences were measured (“ln(normalized median fluorescence intensity)”: median about 8.9, highest 2% from about 10 on). This is one part of a sample in which the highest values are shown more often than they occur.
Readout: gcPBM binding intensity (ln)
Give only the figure.

Which value of gcPBM binding intensity (ln) has been reported for TTTTTTTTTGTTAGTTGTACGTTAAATGAATTTACT [XGTACX_site7675] in the records?
8.67

Which value of gcPBM binding intensity (ln) has been reported for GTTATATGTTATATATATATATATATATATATATAT [TGCATGCA_negctrl_site428] in the records?
9.51

Which value of gcPBM binding intensity (ln) has been reported for ATAAAATAAAACAACACACACGAATGTATAAATATA [CACACA_site4643] in the records?
9.53

Which value of gcPBM binding intensity (ln) has been reported for GCACGAAACAATGTATATATATATATATATATATAT [GTGCAC_negctrl_site412] in the records?
10.3

Which value of gcPBM binding intensity (ln) has been reported for ATATATATATGTATGTATATATATATATATATGTTT [CACACA_negctrl_site248] in the records?
9.08

The measurements presented in this section are drawn from the supplement of paper PMC11417369.
